- Test system: CS91 cells
- method summary: Ex vivo sensitivity of murine melanoma cells after prolonged treatment (MTT)
- Type: cell-based, mouse
- stated conditions: read-out: IC50 of in vitro cultured CS91 cells
readout kind: IC50 (µM)
# number only, unit µM dropped from output

Requested field: IC50. Item: N=C(Nc1ccc(CCNCc2cccc(NC(=N)c3cccs3)c2)cc1)c1cccs1 [HH044]
12.7

###

- tgt: Human nNOS (Homo sapiens)
- Sequence (P29475 whole entry): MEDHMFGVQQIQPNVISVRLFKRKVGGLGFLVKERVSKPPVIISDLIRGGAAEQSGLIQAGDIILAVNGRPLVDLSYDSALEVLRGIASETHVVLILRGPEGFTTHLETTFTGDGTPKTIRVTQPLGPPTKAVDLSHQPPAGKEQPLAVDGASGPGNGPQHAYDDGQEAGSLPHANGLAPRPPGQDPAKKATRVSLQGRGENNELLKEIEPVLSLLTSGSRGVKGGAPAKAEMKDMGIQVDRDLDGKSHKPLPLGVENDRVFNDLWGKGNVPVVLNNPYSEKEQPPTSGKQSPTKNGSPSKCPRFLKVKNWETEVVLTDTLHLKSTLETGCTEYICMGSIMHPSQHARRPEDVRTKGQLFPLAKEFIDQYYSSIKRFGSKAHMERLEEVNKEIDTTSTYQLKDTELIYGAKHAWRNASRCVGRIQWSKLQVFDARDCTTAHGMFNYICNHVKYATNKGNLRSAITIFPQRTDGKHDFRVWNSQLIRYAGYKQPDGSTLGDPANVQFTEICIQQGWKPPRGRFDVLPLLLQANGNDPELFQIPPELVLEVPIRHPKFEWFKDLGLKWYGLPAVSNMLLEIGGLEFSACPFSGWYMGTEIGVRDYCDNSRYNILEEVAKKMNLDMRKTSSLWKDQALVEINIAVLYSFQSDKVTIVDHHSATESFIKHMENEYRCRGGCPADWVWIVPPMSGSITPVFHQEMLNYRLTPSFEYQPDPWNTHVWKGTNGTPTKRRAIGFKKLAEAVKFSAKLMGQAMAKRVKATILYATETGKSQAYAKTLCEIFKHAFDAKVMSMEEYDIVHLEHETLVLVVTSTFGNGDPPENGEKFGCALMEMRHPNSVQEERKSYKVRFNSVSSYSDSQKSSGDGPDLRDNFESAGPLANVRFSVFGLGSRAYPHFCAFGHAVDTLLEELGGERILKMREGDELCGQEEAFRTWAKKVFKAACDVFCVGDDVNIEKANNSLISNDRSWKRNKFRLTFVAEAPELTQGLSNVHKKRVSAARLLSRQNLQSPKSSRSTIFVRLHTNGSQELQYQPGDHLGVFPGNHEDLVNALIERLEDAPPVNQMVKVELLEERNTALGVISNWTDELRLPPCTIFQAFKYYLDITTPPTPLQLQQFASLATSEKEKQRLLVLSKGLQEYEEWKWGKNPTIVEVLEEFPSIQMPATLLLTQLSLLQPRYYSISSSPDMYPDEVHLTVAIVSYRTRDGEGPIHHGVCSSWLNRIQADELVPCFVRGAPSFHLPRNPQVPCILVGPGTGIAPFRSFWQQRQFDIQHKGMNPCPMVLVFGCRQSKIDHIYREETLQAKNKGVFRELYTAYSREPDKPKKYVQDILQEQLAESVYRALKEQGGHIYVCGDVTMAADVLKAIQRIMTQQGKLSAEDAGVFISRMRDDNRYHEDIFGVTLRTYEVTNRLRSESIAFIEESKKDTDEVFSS
readout kind: Ki (nM)
Return type: number; implicit unit nM.

Name the recorded Ki for `N=C(Nc1ccc(CCNCc2cccc(NC(=N)c3cccs3)c2)cc1)c1cccs1` .
20
